FYI, the data here is from patent US20250353873A1.

Could you please report measured APOE RNA (% control) Cortex for the items listed next?
Test system: human APOE RNA
Test details: Activity in APOE C57BL/6NTac-Apoeem7250 knock-in mice, single ICV bolus, 8 weeks (Example 11)
Format: in vivo
Condition set: cortex; single ICV bolus 300 μg; 8 weeks post treatment; normalized to mouse Ppia
Strand notation (5' to 3'): a small letter for the sugar, then the base; units joined by * are phosphorothioate-linked, units joined directly phosphodiester-linked; [ ] holds rarer units or linkages, { } end groups; capitals alone tell only the bases. [ms] = mesyl phosphoramidate linkage; e = 2'-O-(2-methoxyethyl) (MOE); k = constrained ethyl (cEt); [5mC] = 5-methylcytosine; d = 2'-deoxy (DNA)
One number for each entry, in % control.

Substance	Assay value
1652914: 5-10-5 MOE gapmer GGTGAATCTTTATTAAACTA, linkages soooszzssssssszooss (antisense eG*eGeTeGeA*dA[ms]dT[ms]d[5mC]*dT*dT*dT*dA*dT*dT*dA[ms]eAeAe[5mC]*eT*eA) [compound 1652914]	108

Now look at this one.
Measured APOE RNA (% control) Cortex of 1746784 (k[5mC]*kT*kT*dG[ms]dG[ms]dT[ms]dG[ms]dA[ms]dA[ms]dT*d[5mC]*dT*dT*dT*dA[ms]dT*kT*kA*dA[ms]kA; antisense) [Compound 1746784] : 38
